- MEASUREMENT_PROTOCOL: Plasma creatine kinetics after a single 2 g creatine dose (one-open compartmental model)
- Assay type: in vivo, human
- CONDITION_DESCRIPTION: human, plasma, oral; after ingestion of 2 g creatine, mean over the forms; read-out: mean half-life of elimination (converted)

MOLECULE: CN(CC(=O)O)C(=N)N [creatine]
half-life: 1.09 h
